# Tested on: 616215-338-R-J1-PDC complex spheroid growth, % test/control
# procedure_details: Anticancer human tumor 616215-338-R-J1-PDC patient-derived colon adenocarcinoma cell line growth inhibition [Asc]
# settings: second compound 0.1 µM; first compound 0.00316 µM; stronger effect = lower value
attribute_measured: viability, T/C

>>> recorded_measurement("COc1c(OCCCN2CCOCC2)ccc2c3n(c(=NC(=O)c4cnc(N)nc4)nc12)CCN3 + CNC(C)C(=O)NC1CN(S(=O)(=O)c2cccc(S(=O)(=O)N3CCC4CCC(C(=O)NC(c5ccccc5)c5ccccc5)N4C(=O)C(NC(=O)C(C)NC)C3)c2)CCC2CCC(C(=O)NC(c3ccccc3)c3ccccc3)N2C1=O")
"101%"

From here, focus on the item given below.
Give the reported viability, T/C for this compound. O=C(c1ccc(F)c(F)c1Nc1ccc(I)cc1F)N1CC(O)([C@@H]2CCCCN2)C1 + Cc1c(S(C)(=O)=O)c(-c2cc(F)cc(N3CCN(c4ccc(NS(=O)(=O)c5ccc(NC(CCN6CCC(C(=O)OCCCP(=O)(O)O)CC6)CSc6ccccc6)c(S(=O)(=O)C(F)(F)F)c5)cc4)CC3)c2)c(-c2ccc(Cl)cc2)n1C(C)C
92.4%

###

# Tested on: 616215-338-R-J1-PDC complex spheroid growth, % test/control
# procedure_details: Anticancer human tumor 616215-338-R-J1-PDC cell line growth inhibition [Asc];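 note: spheroids exposed to agents for seven days before readout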;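 for viability, T/C: 100% = DMSO vehicle control viability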
# settings: second compound 0.3 µM; first compound 1 µM; stronger effect = lower value
attribute_measured: viability, T/C (%)
# unit: % | format: bare number

>>> recorded_measurement("CNC(C)C(=O)NC1CN(S(=O)(=O)c2cccc(S(=O)(=O)N3CCC4CCC(C(=O)NC(c5ccccc5)c5ccccc5)N4C(=O)C(NC(=O)C(C)NC)C3)c2)CCC2CCC(C(=O)NC(c3ccccc3)c3ccccc3)N2C1=O (centres undefined) + CCN1C(C(=O)NC23CCC(C(=O)O)(CC2)CC3)C(c2cccc(Cl)c2F)C2(C(=O)Nc3cc(Cl)ccc32)C12CCCCC2")
61.2

# return viability, T/C of CCN1CCN(Cc2ccc(Nc3ncc(F)c(-c4cc(F)c5nc(C)n(C(C)C)c5c4)n3)nc2)CC1 + CCN1C(C(=O)NC23CCC(C(=O)O)(CC2)CC3)C(c2cccc(Cl)c2F)C2(C(=O)Nc3cc(Cl)ccc32)C12CCCCC2 (system: 616215-338-R-J1-PDC complex spheroid growth, % test/control)
59.9

# return viability, T/C of O=C(c1ccc(F)c(F)c1Nc1ccc(I)cc1F)N1CC(O)([C@@H]2CCCCN2)C1 + CCN1C(C(=O)NC23CCC(C(=O)O)(CC2)CC3)C(c2cccc(Cl)c2F)C2(C(=O)Nc3cc(Cl)ccc32)C12CCCCC2 (system: 616215-338-R-J1-PDC complex spheroid growth, % test/control)
1.93

# return viability, T/C of C=C(F)C(=O)N1CCN(c2nc(OCC3CCCN3C)nc3c2CCN(c2cccc4cccc(Cl)c24)C3)CC1CC#N (centres undefined) + CCN1C(C(=O)NC23CCC(C(=O)O)(CC2)CC3)C(c2cccc(Cl)c2F)C2(C(=O)Nc3cc(Cl)ccc32)C12CCCCC2 (system: 616215-338-R-J1-PDC complex spheroid growth, % test/control)
65.7

###

# Tested on: 616215-338-R-J1-PDC complex spheroid growth, % test/control
# procedure_details: Anticancer human tumor 616215-338-R-J1-PDC cell line growth inhibition [Asc];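 note: spheroids exposed to agents for seven days before readout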
# settings: curve of first compound; second compound 0.316 µM
attribute_measured: pIC50
pIC50 here is simply -log10 of the concentration when that concentration is written in mol/L.

Give the reported pIC50 for this molecule. C#Cc1c(F)ccc2cc(O)cc(-c3ncc4c(N5CC6CCC(C5)N6)nc(OCC56CCCN5CC(F)C6)nc4c3F)c12 (configuration not stated) + CNC(C)C(=O)NC1CN(S(=O)(=O)c2cccc(S(=O)(=O)N3CCC4CCC(C(=O)NC(c5ccccc5)c5ccccc5)N4C(=O)C(NC(=O)C(C)NC)C3)c2)CCC2CCC(C(=O)NC(c3ccccc3)c3ccccc3)N2C1=O
5.57
